// provenance: paper PMC6690926

Assay: Parallel artificial membrane permeability assay
Format: in vitro ADME
Conditions: PAMPA, pH 6.8
Property Name: Papp at 5 h, 200 µg/mL (×10⁻⁶ cm/s)

cpd_smiles=Nc1nc2[nH]cc(CCc3ccc(C(=O)N[C@@H](CCC(=O)O)C(=O)O)cc3)c2c(=O)[nH]1 property_name="Papp at 5 h, 200 µg/mL" result=0.29

---

Assay: In vivo pharmacokinetic study in rats
Details: Sprague-Dawley, rat, plasma, po, 25 mg/kg
Property Name: Tmax (min)

cpd_smiles=Nc1nc2[nH]cc(CCc3ccc(C(=O)N[C@@H](CCC(=O)O)C(=O)O)cc3)c2c(=O)[nH]1 result=37.8

---

Experiment: In vivo pharmacokinetic study in rats
Conditions: Sprague-Dawley, rat, plasma, po, 25 mg/kg
Property Name: AUC(0-inf) (ng·h/mL)

compound="Nc1nc2[nH]cc(CCc3ccc(C(=O)N[C@@H](CCC(=O)O)C(=O)O)cc3)c2c(=O)[nH]1 [PMX]" measurement_units=ng·h/mL result=2770

---

Test: In vivo pharmacokinetic study in rats
Conditions: Sprague-Dawley, rat, plasma, oral, 25 mg/kg
Property Name: bioavailability (%)

cpd_smiles=Nc1nc2[nH]cc(CCc3ccc(C(=O)N[C@@H](CCC(=O)O)C(=O)O)cc3)c2c(=O)[nH]1 result=5.02

---

Test: In vivo pharmacokinetic study in rats
Conditions: Sprague-Dawley, rat, plasma, po, 25 mg/kg
Property Name: half-life (h)

compound="Nc1nc2[nH]cc(CCc3ccc(C(=O)N[C@@H](CCC(=O)O)C(=O)O)cc3)c2c(=O)[nH]1 [PMX]" result=2.5

---

Assay: In vivo pharmacokinetic study in rats
Conditions: Sprague-Dawley, rat, plasma, po, 25 mg/kg
Property Name: AUC(0-t)

cpd_smiles=Nc1nc2[nH]cc(CCc3ccc(C(=O)N[C@@H](CCC(=O)O)C(=O)O)cc3)c2c(=O)[nH]1 property_name=AUC(0-t) result="2350 ng·h/mL"

---

Experiment: In vitro permeability across a Caco-2 cell monolayer
Assay type: in vitro ADME
Settings: human
Property Name: Papp at 5 h, 100 µg/mL (×10⁻⁶ cm/s)

compound="Nc1nc2[nH]cc(CCc3ccc(C(=O)N[C@@H](CCC(=O)O)C(=O)O)cc3)c2c(=O)[nH]1 [PMX]" result=1.78
